# System: human nonsmall-cell lung cancer cell H460
# assay info: In vitro anti-tumor cell activity (MTT), H460
# Format: cell-based
# setup conditions: H460 cells, MTT, 72 h, Bliss method
# Experimental: The digested cell solution was poured into a centrifuge tube, to which a culture media was added to stop the digestion. […] The reaction product of survival cells with MTT, i.e. formazan, was dissolved completely by oscillation on a magnetic oscillator, and then placed into a microplate reader to measure the results, and the IC50 values of compounds could be deduced by Bliss method.
readout kind: H460 IC50 (µg/mL)
Dear colleague, please return just the value in µg/mL, with no unit written.

In: Print human nonsmall-cell lung cancer cell H460 H460 IC50 for COc1cc2c(Oc3ccc(NC(=O)c4nn(-c5ccc(F)c(F)c5)c(=O)n(C)c4=O)cc3F)ccnc2cc1OCCCN1CCOCC1 [Example 18] .
Out: 0.57

In: Print human nonsmall-cell lung cancer cell H460 H460 IC50 for COc1cc2c(Oc3ccc(NC(=O)c4nn(-c5ccc(C)cc5)c(=O)n(C)c4=O)cc3F)ccnc2cc1OCCCN1CCN(C)CC1 [Example 15] .
Out: 0.18

In: Print human nonsmall-cell lung cancer cell H460 H460 IC50 for COc1cc2c(Oc3ccc(NC(=O)c4nn(-c5ccccc5)c(=O)n(C)c4=O)cc3F)ccnc2cc1OCCCN1CCN(C)CC1 [Example 5] .
Out: 0.094

In: Print human nonsmall-cell lung cancer cell H460 H460 IC50 for COc1cc2c(Oc3ccc(NC(=O)c4nn(-c5ccc(Br)cc5)c(=O)n(C)c4=O)cc3F)ccnc2cc1OCCCN1CCCCC1 [Example 7] .
Out: 0.13
